Provenance of the data: the supplement of paper PMC6555819

Listing of recorded PBM binding z-score by entry.
Tested on: PXR:RXRa (NR concentration 270 nM, RXRa partner concentration 90 nM)
Experiment: PBM binding z-score (relative to random genomic background probes); higher = stronger binding; sequences stand for … in GC…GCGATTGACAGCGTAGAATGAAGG
# answer = number (no unit)

Entry sequence | PBM binding z-score
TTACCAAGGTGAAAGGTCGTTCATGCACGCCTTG | 3.93
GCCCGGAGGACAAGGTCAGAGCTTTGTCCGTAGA | 1.56

Which PBM binding z-score reading was recorded for the sequence "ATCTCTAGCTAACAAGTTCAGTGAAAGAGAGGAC" ?
1.36

Now the same for "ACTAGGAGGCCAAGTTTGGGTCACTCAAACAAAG"
1.22

* * *

Measured PBM binding z-score by item
Test system: RARg homodimer (NR concentration 270 nM)
Assay: PBM binding z-score (relative to random genomic background probes); higher = stronger binding; sequences stand for … in GC…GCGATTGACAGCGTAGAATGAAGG
I'd appreciate a reply containing only the number, no unit.

As a guide, the following entries are already answered.
Entry sequence | Measured target | PBM binding z-score
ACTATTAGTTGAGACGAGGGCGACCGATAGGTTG | RARg homodimer (NR concentration 270 nM) | 0.419
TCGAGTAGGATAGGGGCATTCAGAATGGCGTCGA | RARg homodimer (NR concentration 270 nM) | -0.225
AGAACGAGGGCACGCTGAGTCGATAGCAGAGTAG | RARg homodimer (NR concentration 270 nM) | 2.12

Provide the documented PBM binding z-score with RARg homodimer (NR concentration 270 nM) as the system for "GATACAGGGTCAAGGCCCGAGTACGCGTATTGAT"
5

* * *

The entries below come with measured PBM binding z-score values attached.
Tested on: PPARg DBDmut:RXRa IVT, anti-PPARg (DBD mutation: PPARg1 K132A/R137A, NR concentration 270 nM, RXRa partner concentration 90 nM)
Assay: PBM binding z-score (relative to random genomic background probes); higher = stronger binding; sequences stand for … in GC…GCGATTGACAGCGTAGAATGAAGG

Consider the following illustrative entries.
Entry sequence | Measurement type | Result
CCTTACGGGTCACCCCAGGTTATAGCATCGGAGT | PBM binding z-score | 0.299
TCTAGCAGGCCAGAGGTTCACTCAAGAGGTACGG | PBM binding z-score | -1.08
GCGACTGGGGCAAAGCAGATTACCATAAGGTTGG | PBM binding z-score | -0.663

Field request: PBM binding z-score | item: "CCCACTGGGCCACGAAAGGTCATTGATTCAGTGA"
1.73

And the next one, "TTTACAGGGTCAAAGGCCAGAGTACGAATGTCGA" ?
1.93

Entry to check: "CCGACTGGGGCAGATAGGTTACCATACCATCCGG"
-1.44

Follow-up item: "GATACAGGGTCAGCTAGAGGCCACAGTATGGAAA"
0.921

What do we get for "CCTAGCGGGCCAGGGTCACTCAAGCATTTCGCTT" ?
-1.58

What do we get for "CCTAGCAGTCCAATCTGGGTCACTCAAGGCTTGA" ?
-0.524

Next record, please: "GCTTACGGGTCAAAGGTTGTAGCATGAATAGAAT"
0.728

Same again, this time with "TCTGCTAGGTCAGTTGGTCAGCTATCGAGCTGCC"
0.301
